Target Entity: T1, ZIKV (prM80E) with a C-terminal myc-myc-hexahistidine tag (Zika virus, UniProt A0A024B7W1 104-694)
T1 construct: also called ZIKV (prM80E)-mmH; ZIKV-mmH
Procedure Summary: SPR, mAb captured, 37C, pH 7.4
Recorded t½ by entry
A number alone suffices; assume min.

Known results for binders:
H4H25703N (antibody, V domains shown) VH: QVQLVESGGGVVQPGRSLRLSCAASGFTFNYYGMHWVRQAPGKGLEWVAVISYDGTNKYYADSVKGRFTTSRDNSKNTLYLQMNSLRAEDTALYYCARDRGGRFDYWGQGIQVTVSS VL: EIVLTQSPDTLSLSPGERATLSCRASQSVSSNYLAWYQQKPGQAPRLLIYGASSRATGIPDRFSGSGSGTDFTLTISRLEPEDFAVYYCQRYGTSPLTFGGGTKVEIKR    5.47
H4H25602P (antibody, V domains shown) VH: EVQLVESGGGLVQPGGSLRLSCAASGFTVSSNYMSWVRQAPGSGLEWVSVIYSGGITHYVDSVKGRFTISRHNSKNTLYLQMNSLRAEDTAMYYCARERYSGITGNPYGFDIWGQGTMVTVSS VL: DIQLTQSPSFLSASVGDRVTITCWASQDISSYLAWYQQKPGIAPKLLIYAASTLQSGVPSRFSGSGSGTEFTLTISSLQPEDFATYYCQQLNIYPFTFGPGTKVDIK    32.5
H4H25566P (antibody, V domains shown) VH: QVQLQESGPGLVKPSQTLSLTCTVSGGSISSGGYYWSWIRQHPGKGLEWIGYIYYSGSTYYNPSLKSRITISIDTSKNQFSLKLTSVTAADTAVYYCARGQQLLSFDYWGQGTLVTVSS VL: DIQMTQSPSSVSASVGDRVTITCRASQGISRWLAWYQLKPGKPPTPLIYAASSLQSGAPSRFSGRGSGTDFTLTISSLQPEDFATYYCQQANSFPYTFGQGTKLEIK    0.21
H4H25640P (antibody, V domains shown) VH: QVQLVESGGGVVQPGRSLRLSCAASGFTFSYYGMHWVRQAPGKGLEWVAVILYDGSNKFYSDSVKGRFTISRDNSRNTLYLQMNSLRLEDTAVYYCAKDYGGRFDYWGQGTLVTVSS VL: EIVLTQSPGTLSLSSGERATLSCRASQSVSNKYLAWYQQKPGQVPRLLIYGASNRATGIPDRFSGSGSGTDFTLTINRLEPEDFAVFYCQQYGSTPSTFGQGTKVEIK    6.72

Asked: Give the reported value of t½ for this record: H4H25704N (antibody, V domains shown) VH: QVQLVESGGGVVQSGRSLRLSCAASGFTFIYYGMHWVRQAPGKGLEWVAVISYDGSDRYYADSVKGRFTISRDDSKNTLYLQMNSLRPEDTAVYYCAKDRGGRFDYWGQGTLVTVSS VL: EIVLTQSPGTLSLSPGERATLSCRASQSVNNNYLAWYQQKPGQAPRLLIYGASSRATGIPDRFGGGGSGTDFTLTISRLEPEDFAVYYCQRYGNSPLTFGGGTKVEIK
Given back: 9.56
